Below, each entry is listed alongside its reported pKd.
Biological target: UniProt:D7R512
Experiment: Isothermal titration calorimetry
Format: binding
Settings: Kd2, AAC(3)-Ia; second set of sites, 25 °C, with coenzyme A, n = 3
Description: To accurately measure protein ligand interactions, the concentration of our proteins of interest was measured spectrophotometrically using the NanoDrop OneC Spectrometer (Thermo Scientific). ITC experiments were performed on a MicroCal iTC 200 (General Electric) at 25 °C with stirring at 750 rpm. […] Results were analyzed using ORIGIN software version 7E (MicroCal) using the molecular weight of a single protomer of each protein and fitted with a two-set of sites binding model (Supplementary Fig. 5). […]
Give only the number. pKd is defined as minus log10 of concentration in molar units.

CN[C@@H]1[C@@H](O)[C@@H](O[C@@H]2[C@@H](O)[C@H](O[C@H]3OC(CN)=CC[C@H]3N)[C@@H](N)C[C@H]2N)OC[C@]1(C)O :: 4.14

Sure, the documented pKd for CNC(C)C1CCC(N)C(OC2C(N)CC(N)C(OC3OCC(C)(O)C(NC)C3O)C2O)O1 (centres unmarked) is 4.62

###

target: AAC(3)-XIa (Corynebacterium striatum); assay: Isothermal titration calorimetry; type: binding; details: Kd2, AAC(3)-XIa; second set of sites, 25 °C, with coenzyme A, n = 3
Measured Kd values are reported for all entries that follow.
Use µM as the unit, but write only the number.

CN[C@@H]1[C@@H](O)[C@@H](O[C@@H]2[C@@H](O)[C@H](O[C@H]3OC(CN)=CC[C@H]3N)[C@@H](N)C[C@H]2N)OC[C@]1(C)O :: 27.1

I looked up CNC(C)C1CCC(N)C(OC2C(N)CC(N)C(OC3OCC(C)(O)C(NC)C3O)C2O)O1 (centres unmarked) and its Kd for AAC(3)-XIa (Corynebacterium striatum) was 8.5

###

# pKd annotations
molecular target: AAC(3)-IIIa (Pseudomonas aeruginosa, UniProt P29808); construct: 6xHis-tag (thrombin-cleavable, pET15b) (N); made in house; host or cells: LOBSTR E. coli; test: Isothermal titration calorimetry; format: binding, P. aeruginosa; conditions: first set of sites, two-set of sites model, 25 °C, with coenzyme A, n = 3, read-out: Kd
Sequence (P29808 whole entry): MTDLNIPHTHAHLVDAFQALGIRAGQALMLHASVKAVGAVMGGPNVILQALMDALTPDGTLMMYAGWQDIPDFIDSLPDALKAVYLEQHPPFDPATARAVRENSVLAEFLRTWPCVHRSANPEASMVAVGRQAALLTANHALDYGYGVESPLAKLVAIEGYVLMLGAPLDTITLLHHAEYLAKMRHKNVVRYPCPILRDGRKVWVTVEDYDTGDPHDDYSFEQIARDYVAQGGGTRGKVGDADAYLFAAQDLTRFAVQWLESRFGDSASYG
For clarity, pKd is expressed as the negative log10 of concentration in mol/L.

CN[C@@H]1[C@@H](O)[C@@H](O[C@@H]2[C@@H](O)[C@H](O[C@H]3OC(CN)=CC[C@H]3N)[C@@H](N)C[C@H]2N)OC[C@]1(C)O :: 5.89

Let us examine a further case.
Data point: CNC(C)C1CCC(N)C(OC2C(N)CC(N)C(OC3OCC(C)(O)C(NC)C3O)C2O)O1 (centres unmarked) ; pKd = 5.08

# credit: paper PMC12378234
